These measurements were taken from the Human Domainome abundance scans (Beltran et al. 2025).

Items are presented alongside their recorded abundance fitness.
B1: DnaJ homolog subfamily C member 5, residues 16 to 77; numbered along this chain, Q9H3Z4 (parent)
chain: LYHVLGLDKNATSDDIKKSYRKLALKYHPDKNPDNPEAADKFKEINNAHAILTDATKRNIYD

Variants of: B1
Experiment: abundance fitness (aPCA) (normalised: wild type 0, dead -1); higher = more abundant; growth selection in yeast, the domain comes from the species named
Settings: Homo sapiens
quantity: abundance fitness

[[record]]
sequence_record = "LYHVLGLDKNATSDDIKKSYRKLALKYHPDKNPDNPEAADKFKEINNAHAILTDATKRSIYD [N59S]"
reading = -0.029

[[record]]
sequence_record = "LYHVLGLDKNATSDDIKKSLRKLALKYHPDKNPDNPEAADKFKEINNAHAILTDATKRNIYD [Y20L]"
reading = -0.505

[[record]]
sequence_record = "LYHVLGLDKNATSDDIKKSYRKLALKYHPDKNPDNPWAADKFKEINNAHAILTDATKRNIYD [E37W]"
reading = -0.171

[[record]]
sequence_record = "LYHVLGLDKNATSDDIKKSYRKLALKYHPDKNPDNPEAADKFKKINNAHAILTDATKRNIYD [E44K]"
reading = -0.376

[[record]]
sequence_record = "LYHVLGLDKNATSDDICKSYRKLALKYHPDKNPDNPEAADKFKEINNAHAILTDATKRNIYD [K17C]"
reading = -0.361

[[record]]
sequence_record = "LYHVLGLDKNATSDDIKKSYRKLALKYHPDKNPDNPEAVDKFKEINNAHAILTDATKRNIYD [A39V]"
reading = -0.01

[[record]]
sequence_record = "LYHVLGLDKNATNDDIKKSYRKLALKYHPDKNPDNPEAADKFKEINNAHAILTDATKRNIYD [S13N]"
reading = 0.002

[[record]]
sequence_record = "LYHVLGLDKNATSDDIKKSYRKLALKYHPDKNPDNPEAADKFKFINNAHAILTDATKRNIYD [E44F]"
reading = -0.744

[[record]]
sequence_record = "LYHVLGLDKNATSDDIKKSYRKLALKYHPDKNPDNPEAADKFKEINNAHAILTDAWKRNIYD [T56W]"
reading = -0.475

[[record]]
sequence_record = "LYHVLGLDKNATSDDIKKSYRKLALKYHPDKNPDNPEAADKFKEINNAHAILTDATKRNIYG [D62G]"
reading = -0.16

[[record]]
sequence_record = "LYHVLGLDKNATSDDIKKSYRKLALKYHPDKNNDNPEAADKFKEINNAHAILTDATKRNIYD [P33N]"
reading = -0.365

[[record]]
sequence_record = "LYHVLGLDKNATSDDIKKSYRKLALKYHPDKNPDNPEAKDKFKEINNAHAILTDATKRNIYD [A39K]"
reading = 0.095

[[record]]
sequence_record = "LYHVLGLDKNATSDDQKKSYRKLALKYHPDKNPDNPEAADKFKEINNAHAILTDATKRNIYD [I16Q]"
reading = -0.437

[[record]]
sequence_record = "LYHVLGLDKNATSDDIKKSYRKLALKYHPDKNPDNPEAADKQKEINNAHAILTDATKRNIYD [F42Q]"
reading = -0.233

[[record]]
sequence_record = "LYHVLGLDKNATSDDIKKSYRKLALKYHPDKNPDNPEAADKFKEINNAHAILTDATKRNMYD [I60M]"
reading = 0.114

[[record]]
sequence_record = "LYHVLGLDKNATSDDIKKSYRKLALKYHPDKNPDNPEAADKFKEINNAHAILTDRTKRNIYD [A55R]"
reading = -0.156

[[record]]
sequence_record = "LYHVLGLDKNATSDDIKKSYRKLALKYHPDKNPDNPEAADKFKEINNAHAITTDATKRNIYD [L52T]"
reading = -0.446

[[record]]
sequence_record = "LYHVLGLDKNATSDDIKKSYRKLALKYHPDKNPDNPEAADKFKMINNAHAILTDATKRNIYD [E44M]"
reading = -0.097

[[record]]
sequence_record = "LYLVLGLDKNATSDDIKKSYRKLALKYHPDKNPDNPEAADKFKEINNAHAILTDATKRNIYD [H3L]"
reading = -0.364

[[record]]
sequence_record = "LYHVLGLDKNATSDDIKKSYRKLALKYHPDKNPDNPEAADEFKEINNAHAILTDATKRNIYD [K41E]"
reading = -0.311

[[record]]
sequence_record = "LYHVNGLDKNATSDDIKKSYRKLALKYHPDKNPDNPEAADKFKEINNAHAILTDATKRNIYD [L5N]"
reading = 0.123

[[record]]
sequence_record = "LYHVLGLDKNATSDDIKKSYRKLALKYHPDKNPDNPEAADKFKEINNAHAILPDATKRNIYD [T53P]"
reading = -0.678

[[record]]
sequence_record = "LYHVLGLDKNATSDDMKKSYRKLALKYHPDKNPDNPEAADKFKEINNAHAILTDATKRNIYD [I16M]"
reading = -0.65

[[record]]
sequence_record = "LYHVLGLDKNMTSDDIKKSYRKLALKYHPDKNPDNPEAADKFKEINNAHAILTDATKRNIYD [A11M]"
reading = -1.6

[[record]]
sequence_record = "LYHVLGLDKNATSDDIKKSYRKLALKYHPDKNPDNPEAADKFKGINNAHAILTDATKRNIYD [E44G]"
reading = -0.527

[[record]]
sequence_record = "LYHVLGFDKNATSDDIKKSYRKLALKYHPDKNPDNPEAADKFKEINNAHAILTDATKRNIYD [L7F]"
reading = -0.734

[[record]]
sequence_record = "LYHVLGLDKNATSDDIKKSYRKLALKYHPDKRPDNPEAADKFKEINNAHAILTDATKRNIYD [N32R]"
reading = -0.431

[[record]]
sequence_record = "LYHVLGLDKNATSDDIKKSYRNLALKYHPDKNPDNPEAADKFKEINNAHAILTDATKRNIYD [K22N]"
reading = -0.188

[[record]]
sequence_record = "LYHVLGLDKNATSDDIKKSYRKLCLKYHPDKNPDNPEAADKFKEINNAHAILTDATKRNIYD [A24C]"
reading = 0.159

[[record]]
sequence_record = "LYHVLGLDKNATSDDIKKSYRKLALKYHPDKNPDNPEAADKFKEINNAHAIPTDATKRNIYD [L52P]"
reading = -0.292

[[record]]
sequence_record = "LYHVLGLDKNATSDDIKKSYRKLALKYHPDKNPDNPEAADKFKQINNAHAILTDATKRNIYD [E44Q]"
reading = -0.301

[[record]]
sequence_record = "LYHVLGLDKNATSDDPKKSYRKLALKYHPDKNPDNPEAADKFKEINNAHAILTDATKRNIYD [I16P]"
reading = -0.587

[[record]]
sequence_record = "LYHVLGLDKNATSDDIKKSYRKLALKYHPDKNPDNPEAADKFKEINNAHAILGDATKRNIYD [T53G]"
reading = 0.07

[[record]]
sequence_record = "LYHVLGLDKNATSDGIKKSYRKLALKYHPDKNPDNPEAADKFKEINNAHAILTDATKRNIYD [D15G]"
reading = -0.433

[[record]]
sequence_record = "LYWVLGLDKNATSDDIKKSYRKLALKYHPDKNPDNPEAADKFKEINNAHAILTDATKRNIYD [H3W]"
reading = -0.301

[[record]]
sequence_record = "LYHVLGLDKNATSDDIKKSYRKLALKYYPDKNPDNPEAADKFKEINNAHAILTDATKRNIYD [H28Y]"
reading = -0.409

[[record]]
sequence_record = "LYHVLGLDKNATSDDIKKTYRKLALKYHPDKNPDNPEAADKFKEINNAHAILTDATKRNIYD [S19T]"
reading = -0.106

[[record]]
sequence_record = "LYHVLGLDKNATSDDIKKSYRKLALKYHPDKNHDNPEAADKFKEINNAHAILTDATKRNIYD [P33H]"
reading = -0.798

[[record]]
sequence_record = "LYHVLGLDKNATSDDIKKSYRKLALKYHPDKNPDNPIAADKFKEINNAHAILTDATKRNIYD [E37I]"
reading = -0.406

[[record]]
sequence_record = "LYHVLGLDKNATSDDIKKSYRKLALKYHPDKNPDNPEAADKFKEINNAHAGLTDATKRNIYD [I51G]"
reading = -0.257

[[record]]
sequence_record = "LYHVLGLDKNATSDDIKKSYRKLALKYHPDKNPDNPEAADKFKEINNAHAILTDATKRNIYQ [D62Q]"
reading = -0.58

[[record]]
sequence_record = "LYHVLGLDKNATSDDIKKSYRKLALKYHPDKNPDNPEAADKFKEINNAHAILTDACKRNIYD [T56C]"
reading = -0.069

[[record]]
sequence_record = "LYHVLGLDKNATSDDIKKSYRKLALKYHPDKNPDNPEAADKFEEINNAHAILTDATKRNIYD [K43E]"
reading = -0.34

[[record]]
sequence_record = "LYHVLGLDKNATSDDIKKSYRKLALKYHPDKNPDNPEAADKFKEINNTHAILTDATKRNIYD [A48T]"
reading = -0.777

[[record]]
sequence_record = "LYHVLGLDKNATSDDIKKSYRKLALKYHPDKNPDNPEAADKFKEINNAHAILTDATKFNIYD [R58F]"
reading = -0.617

[[record]]
sequence_record = "LYHVLGLDKNATSDDIKKSYRKAALKYHPDKNPDNPEAADKFKEINNAHAILTDATKRNIYD [L23A]"
reading = -0.454

